Collected literature values of Ki measured for Tyrosine-protein kinase Lyn (Homo sapiens, UniProt P07948).

Solved cases below.
compound	experimental.system	Ki
CCOc1nc(NC(C)=O)cc(N)c1C#N	Tyrosine-protein kinase Lyn (Homo sapiens, UniProt P07948)	> 1.7 µM
CC(C)[C@@](C)(O)[C@@H]1CN(c2nc(-c3n[nH]c4ncccc34)c(F)cc2Cl)CCN1	Tyrosine-protein kinase Lyn (Homo sapiens, UniProt P07948)	> 1 µM

Tell me its Ki given Nc1ncnc2c1c(-c1ccc(Cl)cc1)nn2CC(Cl)c1ccccc1 (stereo not drawn) as the entry.
0.19 µM
